All values here come from patent US6656911B2.

- experimental_system: elastase derived from human sputum (HSE) (Homo sapiens)
- Sequence (P08246 30-247 limits assumed): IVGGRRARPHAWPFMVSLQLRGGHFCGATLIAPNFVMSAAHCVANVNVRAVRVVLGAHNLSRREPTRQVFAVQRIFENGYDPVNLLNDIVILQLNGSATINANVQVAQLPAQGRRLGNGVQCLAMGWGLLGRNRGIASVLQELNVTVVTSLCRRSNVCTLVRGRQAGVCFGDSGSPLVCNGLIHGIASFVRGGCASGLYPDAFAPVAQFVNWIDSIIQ

# compound, Ki (nM)
records = [
    ("CC(C)[C@H](NC(=O)Cn1c(-c2ccc(F)cc2)ncc(NC(=O)OCc2ccccc2)c1=O)C(=O)c1nnc(C(C)(C)C)o1 [ONO-PO-698]", 0.77),
    ("Cc1cccc(Cc2nnc(C(=O)[C@@H](NC(=O)Cn3c(-c4ccc(F)cc4)ncc(NS(C)(=O)=O)c3=O)C(C)C)o2)c1 [ONO-PO-702]", 1.78),
    ("CC(C)[C@H](NC(=O)[C@@H]1CCCN1C(=O)[C@@H](NS(C)(=O)=O)C(C)C)C(=O)c1nnc(C(C)(C)C)o1 [ONO-PO-713]", 12),
    ("CC(C)[C@H](NC(=O)Cn1c(-c2ccccc2)cccc1=O)C(=O)c1nnc(C(C)(C)c2ccccc2)o1 [ONO-PO-726]", 590),
    ("CC(C)C[C@@H]1NC(=O)N(CC(=O)N[C@H](C(=O)c2nnc(C(C)(C)c3ccccc3)o2)C(C)C)C1=O [ONO-PO-709]", 25.7),
    ("CC(C)[C@H](NC(=O)Cn1c(-c2ccccc2)ncc(N)c1=O)C(=O)c1nnc(C2(C)CC2)o1 [ONO-PO-728]", 8.75),
    ("CC(C)[C@H](NC(=O)Cn1c(-c2ccccc2)nccc1=O)C(=O)c1nnc(C(C)(C)c2ccccc2)o1 [ONO-PO-731]", 4.02),
    ("CC(C)[C@H](NC(=O)CN1C(=O)CN=C(c2ccc(Cl)cc2)c2ccccc21)C(=O)c1nnc(C(C)(C)C)o1 [ONO-PO-717]", 57.8),
]

###

- experimental_system: human neutrophil elastase (HNE) (Homo sapiens)
- Sequence (P08246 30-267): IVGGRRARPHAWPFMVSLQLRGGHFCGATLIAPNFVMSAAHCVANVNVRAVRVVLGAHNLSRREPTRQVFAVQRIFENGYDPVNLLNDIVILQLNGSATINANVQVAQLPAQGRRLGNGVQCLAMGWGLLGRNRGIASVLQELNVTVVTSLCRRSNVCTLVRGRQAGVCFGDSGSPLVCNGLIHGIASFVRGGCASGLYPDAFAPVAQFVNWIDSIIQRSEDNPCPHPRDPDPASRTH
- protocol: HNE Ki of CE compounds, tested as described in WO 96/16080
- Format: biochemical
- condition_info: read-out: HNE Ki
Form field: Ki (one value per entry).

# molecule, result_units, Ki
measured = [
    ("CC(C)[C@H](NC(=O)CN1C(=O)CN(Cc2ccccc2)C1=O)C(=O)c1noc(Cc2cccc(C(F)(F)F)c2)n1", "nM", 99),
    ("CC(C)[C@H](NC(=O)[C@@H]1CCCN1C(=O)[C@@H](NC(=O)OCc1ccccc1)C(C)C)C(=O)c1nnc(Cc2ccc(N(C)C)cc2)o1", "nM", 0.069),
    ("CC(C)[C@H](NC(=O)CN1Cc2ccccc2NC1=O)C(=O)c1noc(Cc2cccc(C(F)(F)F)c2)n1", "nM", 537),
    ("Cc1cccc(Cc2nnc(C(=O)C(NC(=O)CN3C(=O)NC(c4ccccc4)C3=O)C(C)C)o2)c1 (stereo not shown)", "nM", 0.28),
    ("CC(=O)N1CC(=O)N(CC(=O)N[C@H](C(=O)c2nnc(Cc3cccc(C)c3)o2)C(C)C)C(=Cc2ccc(F)cc2)C1=O", "nM", 0.72),
    ("Cc1cccc(Cc2nnc(C(=O)[C@@H](NC(=O)CN3C(=O)CN(Cc4ccccc4)C(=O)[C@H]3Cc3ccccc3)C(C)C)o2)c1", "nM", 9.3),
    ("Cc1cccc(Cc2nnc(C(=O)[C@@H](NC(=O)CN3C(=O)CN=C(C4CCNCC4)c4ccccc43)C(C)C)o2)c1", "nM", 41.6),
    ("Cc1cccc(Cc2nnc(C(=O)[C@@H](NC(=O)CN3CCC(n4c(=O)[nH]c5ccccc54)CC3)C(C)C)o2)c1", "nM", 124),
    ("Cc1cccc(Cc2nnc(C(=O)C(NC(=O)C3Cc4ccccc4CN3C(=O)C(NC(=O)OCc3ccccc3)C(C)C)C(C)C)o2)c1 (stereo not shown)", "nM", 0.23),
    ("Cc1cccc(Cc2nnc(C(=O)[C@@H](NC(=O)Cn3c(=O)c4ccccc4n(C(=O)c4ccccc4)c3=O)C(C)C)o2)c1", "nM", 204),
    ("Cc1cccc(Cc2nnc(C(=O)[C@@H](NC(=O)CN3CC(=O)N(c4ccccc4)CC3=O)C(C)C)o2)c1", "nM", 1600),
    ("CC(C)C(NC(=O)CN1C(=O)C(c2ccccc2)N(C)C1=O)C(=O)c1noc(Cc2cccc(C(F)(F)F)c2)n1 (stereo not shown)", "nM", 54),
    ("CC(C)C(NC(=O)CN1C(=O)C[S+]([O-])C1Cc1ccccc1)C(=O)c1noc(Cc2cccc(C(F)(F)F)c2)n1 (stereo not shown)", "nM", 558),
    ("Cc1cccc(Cc2nnc(C(=O)C(NC(=O)CN3C(=O)C(c4ccccc4)N(C)C3=O)C(C)C)o2)c1 (stereo not shown)", "nM", 7.6),
    ("Cc1cccc(Cc2nnc(C(=O)[C@@H](NC(=O)CN(C(=O)[C@@H](NC(=O)OCc3ccccc3)C(C)C)c3ccccc3)C(C)C)o2)c1", "nM", 0.15),
    ("CC(C)[C@H](NC(=O)CN1C(=O)N[C@H](Cc2ccccc2)C1=O)C(=O)c1noc(Cc2cccc(C(F)(F)F)c2)n1", "nM", 64),
]
